Ref: PubChem BioAssay (NCI)

- Test system: SF-268 CNS
- PROTOCOL TEXT: NCI tumour cell line growth inhibition, 48 h
PROPERTY LABEL: TGI

INSERT INTO measurements (compound, tgt, property_label, observed_measurement) VALUES
  ('COc1ccc2c(c1)CC[C@@H]1[C@@H]2CC[C@]2(C)C(=O)/C(=C/c3ccc(C#N)cc3)C[C@@H]12', 'SF-268 CNS', 'TGI', '> 100 µM'),
  ('CN(C)CC1CCC(=C2CCCC2)C1=O (stereo unspecified)', 'SF-268 CNS', 'TGI', '26.4 µM'),
  ('O=C(Nc1ccccc1-c1nn(CO)c(=S)n(CO)c1=O)C(F)(F)F', 'SF-268 CNS', 'TGI', '> 100 µM');

Param readout = TGI; param system = SF-268 CNS; param query = COc1ccc(/C=C(\C#N)c2nc3ccccc3c(=O)[nH]2)cc1 ; response: value
47.2 µM

OC1CCN(c2c3ccccc3nc3ccccc23)CC1 ?
34 µM

C/C=C/[C@@H]1[C@H]2C(=O)[C@]3(Cl)[C@@H](/C=C/C)[C@@H]3C(=O)[C@@]12Cl ?
> 100 µM

---

- System: M14 melanoma
- PROTOCOL TEXT: NCI tumour cell line growth inhibition, 48 h
Reported TGI values are given for each entry in this list.
Provide only the numeric value, understood in µM.

Look up TGI for this molecule: CC(=O)c1sc2c(c1OC(=O)c1ccc(Cl)cc1)c(=O)n(-c1ccccc1)c(=S)n2-c1ccccc1
5.48

COC(OC)(c1ccccc1)C(Br)Br ?
37.8

COc1ccc(C2CC(c3cc(Cl)c(C)cc3O)=NN2c2ccc(S(N)(=O)=O)cc2)cc1OC (stereo not given) ?
7.2

c1ccc(CSc2nc(N3CCCCC3)c3cn[nH]c3n2)cc1 ?
37

C=C1C(=O)O[C@H]2[C@H]1CC/C(COC(=O)CCCCCCC(=O)OC/C1=C/CC[C@@]3(C)O[C@H]3[C@H]3OC(=O)C(=C)[C@@H]3CC1)=C\CC[C@@]1(C)O[C@@H]21 ?
8.55

---

- Test system: UACC-257 melanoma
- PROTOCOL TEXT: NCI tumour cell line growth inhibition, 48 h
Reported TGI values are given for each entry in this list.

Previously resolved entries follow.
INSERT INTO results (molecule, observed_measurement) VALUES
  ('CN(C)Cc1cc(/C(=C(\C#N)c2ccccc2)c2ccc(O)cc2)ccc1O', '29.9 µM'),
  ('COC1=CC(c2ccc[nH]2)=N/C1=C\c1[nH]c(C)c(C(=O)CCCCC(=O)NCc2ccccc2)c1C', '38.5 µM'),
  ('N#CCCN(CCCN(C(=O)N(c1ccccc1)c1ccccc1)c1ccccc1)C(=O)Nc1ccccc1', '> 100 µM');

Look up TGI for this molecule: O=C(Oc1cccc2cccnc12)c1cc2cc(CCl)ccc2oc1=O
> 100 µM

---

- System: MDA-MB-231 breast
- PROTOCOL TEXT: NCI tumour cell line growth inhibition, 48 h
PROPERTY LABEL: TGI

INSERT INTO assay_data (molecule, observed_measurement) VALUES
  ('O=C1NC(N/N=C/c2c[nH]c3ccccc23)=N/C1=C\c1cccs1', '> 100 µM'),
  ('CCCCNCC(O)c1cc2c(Cl)cc(Cl)cc2c2cc(C(F)(F)F)ccc12 (centres undefined)', '3.27 µM'),
  ('C=C1C(=O)O[C@H]2[C@H]1CC/C(COC(=O)CCCCCCC(=O)OC/C1=C/CC[C@@]3(C)O[C@H]3[C@H]3OC(=O)C(=C)[C@@H]3CC1)=C\CC[C@@]1(C)O[C@@H]21', '5.94 µM'),
  ('O=P(O)(O)C(NCC(O)CN1CCOCC1)P(=O)(O)O (centres undefined)', '> 100 µM'),
  ('CCCC[C@@H](C)/C=C1\CN2CCC[C@H]2[C@@](C)(O)[C@@H]1O', '> 100 µM'),
  ('O=C(O)C1[C@@H](C(=O)O)C1(Br)CBr (some centres undefined)', '> 100 µM'),
  ('O=S1CCN(Cc2ccc(-c3ccc4ncnc(Nc5ccc(OCc6cccc(F)c6)c(Cl)c5)c4c3)o2)CC1', '> 16.1 µM'),
  ('COc1cc(C=O)cc(/C=N/N=C/c2ccccc2O)c1O', '76.4 µM');

// moving on: another record for TGI
Param readout = TGI; param system = MDA-MB-231 breast; param query = COc1ccc(-c2cc(-c3ccccc3)nc(/N=C\c3ccccc3)n2)c(O)c1 ; response: value
> 100 µM
